B1: Pistol ribozyme (parent)
chain: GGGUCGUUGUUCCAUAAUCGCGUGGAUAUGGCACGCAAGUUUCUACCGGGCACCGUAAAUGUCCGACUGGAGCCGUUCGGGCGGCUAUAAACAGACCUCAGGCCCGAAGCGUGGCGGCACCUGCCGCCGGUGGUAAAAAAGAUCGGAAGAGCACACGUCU

Variants of: B1
Assay: aptazyme ON/OFF ratio, guanine; higher = stronger switching; co-transcriptional cleavage with and without guanine
The entries below come with measured aptazyme ON/OFF ratio values attached.
Number only, please.

Known aptazyme ON/OFF ratio results, listed for orientation:
U7A G9A U10A U11A C13A = 1.15
U7C U8C G9C U10A U11C C12A C13A = 1.09
U7G U8C U10G U11C C13G = 1.19

Turning now to a further variant:
Data request: Param item = U7A U8G G9C U10A U11A C12G C13U ; retrieve measured aptazyme ON/OFF ratio.
Data returned: 1.38
